Attribution: paper PMC6369734

biological target: VHL (VBC complex: pVHL54-213, eloB1-104, eloC17-112) (Homo sapiens); construct: equimolar complex of pVHL54-213, eloB1-104 and; made in house; host or cells: E. coli; assay: Surface plasmon resonance (SPR) steady-state binding to immobilised biotinylated AviVBC; details: SPR steady-state fit, supplement section 7; read-out: KD (Biacore T200 fit)
Sequence (P40337 54-213): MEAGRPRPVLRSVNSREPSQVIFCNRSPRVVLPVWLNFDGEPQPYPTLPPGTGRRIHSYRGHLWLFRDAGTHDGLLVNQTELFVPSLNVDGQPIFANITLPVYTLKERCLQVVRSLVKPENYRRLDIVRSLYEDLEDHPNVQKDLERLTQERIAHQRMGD
Sequence (Q15370 1-104 partner limits assumed): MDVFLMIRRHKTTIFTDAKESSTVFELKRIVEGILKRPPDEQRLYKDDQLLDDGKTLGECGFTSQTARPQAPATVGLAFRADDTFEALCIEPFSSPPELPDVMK
Sequence (Q15369 17-112 partner limits assumed): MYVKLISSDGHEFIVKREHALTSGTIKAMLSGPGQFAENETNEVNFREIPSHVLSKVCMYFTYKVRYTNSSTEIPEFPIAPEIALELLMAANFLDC
# maps each entry to its pKd
The scale used: pKd is minus the common logarithm of the concentration in molar units.

Completed entries (count: 3):
Molecule	Target Of Assay	Value Reported
CC(=O)NC(C(=O)N1CC(O)CC1C(=O)NCc1ccc(-c2scnc2C)c(C(F)(F)F)c1)C(C)(C)C (stereo not drawn)	VHL (VBC complex: pVHL54-213, eloB1-104, eloC17-112) (Homo sapiens)	5.52
CC(=O)N1C[C@H](O)C[C@H]1C(=O)NCc1ccc(-c2scnc2C)c(C(F)(F)F)c1	VHL (VBC complex: pVHL54-213, eloB1-104, eloC17-112) (Homo sapiens)	3.06
CC(C)(C)C(NC(=O)C(F)(F)F)C(=O)N1CC(O)CC1C(=O)NCc1ccc(Br)cc1 (stereo not drawn)	VHL (VBC complex: pVHL54-213, eloB1-104, eloC17-112) (Homo sapiens)	6.35

Item `Cc1ncsc1-c1ccc(CNC(=O)[C@@H]2C[C@@H](O)CN2C(=O)CC(C)(C)C)c(C(F)(F)F)c1` has what recorded pKd?
4.45

Input `CC(C)(C)CC(=O)N1C[C@H](O)C[C@H]1C(=O)NCc1ccc(Br)c(C(F)(F)F)c1`
3.39

And the next one, `CC(=O)N1C[C@H](O)C[C@H]1C(=O)NCc1ccc(Br)c(C(F)(F)F)c1` ?
3.18
